tested-on: T1, biotinylated monovalent EpCAM-Fc (human EpCAM ECD-Fc knob avi-his paired with Fc hole) (human, UniProt P01857 104-328 = IgG part, biotin on the avi tag (BirA co-expression))
T1 construct: also called monovalent EpCAM-Fc construct; huEPCAM-Fc-knob (avi-His) + Fc hole (wt)
procedure-summary: SPR ProteOn XPR36 off-rate, biotinylated monovalent EpCAM-Fc on NLC chip, 50 nM supernatant
Category scheme (koff): bottom bin (below 0.004 s⁻¹), middle bin (0.004 s⁻¹ to below 0.007 s⁻¹), top bin (0.007 s⁻¹ or more)

| binder | assigned-category |
| --- | --- |
| Monovalent EpCAM (GG05_VH x GG05_VL) (antibody, IgG1, V domains shown, one-armed hu IgG1 PG-LALA, VH/VL-crossed Fab on Fc hole plus empty Fc knob; from supernatant) VH: EVQLVQSGAEVKKPGESLKISCKGSGYSFTQYGMNWVRQMPGKGLEWMGWINTYTGESTYSPSFQGQVTISADKSISTAYLQWSSLKASDTAMYFCARFAIKGDYWGQGTLVTVSS VL: DIVMTQSPLSLPVTPGEPASISCRSSQGINNYLYWYLQKPGQSPQLLIYQMSNRASGVPDRFSGSGSGTDFTLKISRVEAEDVGVYYCAQNLEIPRTFGQGTKLEIK | top bin |
| Monovalent EpCAM (GG02_VH x GG07_VL) (antibody, IgG1, V domains shown, one-armed hu IgG1 PG-LALA, VH/VL-crossed Fab on Fc hole plus empty Fc knob; from supernatant) VH: QVQLVQSGAEVKKPGASVKVSCKASGYTFTNYGMNWVRQAPGQRLEWMGWINTYTGESTYSQKFQGRVTITRDTSASTAYMELSSLRSEDTAVYFCARFAIKGDYWGQGTLVTVSS VL: EIVLTQSPGTLSLSPGERATLSCRASQSINNYLYWYQQKPGQAPRLLIYQMSNRATGIPDRFSGSGSGTDFTLTISRLEPEDFAVYYCAQNLEIPRTFGQGTKLEIK | bottom bin |
| Monovalent EpCAM (GG06_VH x GG06_VL) (antibody, IgG1, V domains shown, one-armed hu IgG1 PG-LALA, VH/VL-crossed Fab on Fc hole plus empty Fc knob; from supernatant) VH: QVQLVQSGSELKKPGASVKVSCKASGYTFTNYGMNWVRQAPGQGLEWMGWINTYTGQSTYAQGFTGRFVFSLDTSVSTAYLQISSLKAEDTAVYFCARFAIKGDYWGQGTLVTVSS VL: DIQMTQSPSSLSASVGDRVTITCRASQSILHSQGITYLYWYQQKPGKAPKLLIYQMSNLQSGVPSRFSGSGSGTDFTLTISSLQPEDFATYYCAQNLEIPRTFGQGTKLEIK | bottom bin |
| Monovalent EpCAM (GG06_VH x GG05_VL) (antibody, IgG1, V domains shown, one-armed hu IgG1 PG-LALA, VH/VL-crossed Fab on Fc hole plus empty Fc knob; from supernatant) VH: QVQLVQSGSELKKPGASVKVSCKASGYTFTNYGMNWVRQAPGQGLEWMGWINTYTGQSTYAQGFTGRFVFSLDTSVSTAYLQISSLKAEDTAVYFCARFAIKGDYWGQGTLVTVSS VL: DIVMTQSPLSLPVTPGEPASISCRSSQGINNYLYWYLQKPGQSPQLLIYQMSNRASGVPDRFSGSGSGTDFTLKISRVEAEDVGVYYCAQNLEIPRTFGQGTKLEIK | middle bin |
| Monovalent EpCAM (GG02_VH x GG05_VL) (antibody, IgG1, V domains shown, one-armed hu IgG1 PG-LALA, VH/VL-crossed Fab on Fc hole plus empty Fc knob; from supernatant) VH: QVQLVQSGAEVKKPGASVKVSCKASGYTFTNYGMNWVRQAPGQRLEWMGWINTYTGESTYSQKFQGRVTITRDTSASTAYMELSSLRSEDTAVYFCARFAIKGDYWGQGTLVTVSS VL: DIVMTQSPLSLPVTPGEPASISCRSSQGINNYLYWYLQKPGQSPQLLIYQMSNRASGVPDRFSGSGSGTDFTLKISRVEAEDVGVYYCAQNLEIPRTFGQGTKLEIK | bottom bin |
| Monovalent EpCAM (GG01_VH x GG03_VL) (antibody, IgG1, V domains shown, one-armed hu IgG1 PG-LALA, VH/VL-crossed Fab on Fc hole plus empty Fc knob; from supernatant) VH: QVQLVQSGSELKKPGASVKVSCKASGYTFTNYGMNWVRQAPGQGLEWMGWINTYTGESTYAQGFTGRFVFSLDTSVSTAYLQISSLKAEDTAVYFCARFAIKGDYWGQGTLVTVSS VL: EIVLTQSPGTLSLSPGERATLSCRASQSLLHSNGITYLYWYQQKPGQAPRLLIYQMSNRATGIPDRFSGSGSGTDFTLTISRLEPEDFAVYYCAQNLEIPRTFGQGTKLEIK | bottom bin |
| Monovalent EpCAM (GG04_VH x GG02_VL) (antibody, IgG1, V domains shown, one-armed hu IgG1 PG-LALA, VH/VL-crossed Fab on Fc hole plus empty Fc knob; from supernatant) VH: EVQLVQSGAEVKKPGESLKISCKGSGYSFTNYGMNWVRQMPGKGLEWMGWINTYTGESTYSPSFQGQVTISADKSISTAYLQWSSLKASDTAMYFCARFAIKGDYWGQGTLVTVSS VL: DIVMTQSPDSLAVSLGERATINCKSSQSLLHSNGITYLYWYQQKPGQPPKLLIYQASTRESGVPDRFSGSGSGTDFTLTISSLQAEDVAVYYCAQNLEIPRTFGQGTKLEIK | top bin |
| Monovalent EpCAM (GG01_VH x GG05_VL) (antibody, IgG1, V domains shown, one-armed hu IgG1 PG-LALA, VH/VL-crossed Fab on Fc hole plus empty Fc knob; from supernatant) VH: QVQLVQSGSELKKPGASVKVSCKASGYTFTNYGMNWVRQAPGQGLEWMGWINTYTGESTYAQGFTGRFVFSLDTSVSTAYLQISSLKAEDTAVYFCARFAIKGDYWGQGTLVTVSS VL: DIVMTQSPLSLPVTPGEPASISCRSSQGINNYLYWYLQKPGQSPQLLIYQMSNRASGVPDRFSGSGSGTDFTLKISRVEAEDVGVYYCAQNLEIPRTFGQGTKLEIK | top bin |
| Monovalent EpCAM (GG06_VH x GG04_VL) (antibody, IgG1, V domains shown, one-armed hu IgG1 PG-LALA, VH/VL-crossed Fab on Fc hole plus empty Fc knob; from supernatant) VH: QVQLVQSGSELKKPGASVKVSCKASGYTFTNYGMNWVRQAPGQGLEWMGWINTYTGQSTYAQGFTGRFVFSLDTSVSTAYLQISSLKAEDTAVYFCARFAIKGDYWGQGTLVTVSS VL: DIQMTQSPSSLSASVGDRVTITCRASQSISSYLYWYQQKPGKAPKLLIYQASSLQSGVPSRFSGSGSGTDFTLTISSLQPEDFATYYCAQNLEIPRTFGQGTKLEIK | middle bin |
